experimental-system: Potassium voltage-gated channel subfamily KQT member 2 (Rattus norvegicus)
test-method-notes: rat KCNQ2 channel potentiation, selectivity assay for KCNQ1 potentiator project, KCNQ2-CHO-K1 cells (AID 493009);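 note: assay conditions were tuned for KCNQ1 rather than KCNQ2 modulators; signal is max minus min fluorescence divided by baseline after thallium stimulus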
measurement-parameters: FluxOR thallium flux fluorescence, at 10 µM, scaled: buffer 0, activator control 100
The source made the active and inactive calls.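 Rule for the calls: active = mean duplicate potentiation above the buffer control mean plus 5 SD of buffer wells; inactive = the rest.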
Bench note: report the call from active, inactive

In: Returns: the outcome recorded for Cc1ccc2c(c1)c(C)c(C)n2CC(O)CN1CCCCC1C (configuration not stated) in this assay.
Out: inactive

In: Returns: the outcome recorded for "COc1ccc(C)cc1NC(=O)C(=O)NNC(=O)COc1ccc(Cl)cc1" in this assay.
Out: active

In: Returns: the outcome recorded for "Cn1c(=NC(=O)c2ccco2)sc2cccc(F)c21" in this assay.
Out: inactive

In: Returns: the outcome recorded for "CCC1=NN2C(=N)/C(=C/c3ccc(OS(=O)(=O)c4ccccc4)c(OC)c3)C(=O)N=C2S1" in this assay.
Out: inactive

In: Returns: the outcome recorded for "Cc1ccc(C)c(NC(=S)NC(=O)c2cncc(Br)c2)c1" in this assay.
Out: inactive
